system_name: Albumin (Bos taurus) (UniProt P02769)
Sequence (P02769 whole entry, looked up): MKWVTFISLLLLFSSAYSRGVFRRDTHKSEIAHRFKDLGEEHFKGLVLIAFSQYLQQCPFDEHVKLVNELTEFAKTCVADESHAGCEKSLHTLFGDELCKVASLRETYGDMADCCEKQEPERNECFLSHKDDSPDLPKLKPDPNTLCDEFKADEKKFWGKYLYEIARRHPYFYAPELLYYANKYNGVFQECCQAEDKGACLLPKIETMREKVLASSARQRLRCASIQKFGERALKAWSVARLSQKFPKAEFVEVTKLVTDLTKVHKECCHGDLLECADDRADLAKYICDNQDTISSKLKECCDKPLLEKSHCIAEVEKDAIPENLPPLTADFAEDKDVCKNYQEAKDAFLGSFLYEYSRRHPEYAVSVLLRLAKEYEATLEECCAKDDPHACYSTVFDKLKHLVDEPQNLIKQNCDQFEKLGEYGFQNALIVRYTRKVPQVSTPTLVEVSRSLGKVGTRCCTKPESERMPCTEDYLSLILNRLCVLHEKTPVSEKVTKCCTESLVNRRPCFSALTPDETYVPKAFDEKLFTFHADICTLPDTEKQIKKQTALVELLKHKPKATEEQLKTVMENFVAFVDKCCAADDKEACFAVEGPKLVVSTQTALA
assay_overview: bovine serum albumin binders on microarray, profiling panel, artefact control for SMM control protein annotation, biochemical, small-molecule microarray, Alexa647 label, 635/667 nm fluorescence (AID 1118);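 note: score merges 667 nm emission intensity and signal-to-noise per printed compound spot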
experimental_conditions: BSA-A647 binding, fluorescence 635 nm, higher = more signal
measured_property: composite z-score
Numbers only.

O=C1O[C@H](c2ccccc2)[C@H](c2ccccc2)N2[C@H]1[C@@H](C(=O)O)[C@]1(C(=O)Nc3ccc(C#CC4(O)CCCCCC4)cc31)[C@H]2c1ccccc1OCCO | 0.9

// each compound listed below needs its composite z-score
1. C=CCNC(=O)[C@H]1[C@@H]2C(=O)O[C@@H](c3ccccc3)[C@@H](c3ccccc3)N2[C@@H](c2ccc(O)cc2)[C@]12C(=O)Nc1ccc(C#CCC(C(=O)OC)C(=O)OC)cc12
2. COc1cc2c(cc1OC)CN(C(=O)[C@@H]1[C@H]3C(=O)O[C@H](c4ccccc4)[C@H](c4ccccc4)N3[C@H](c3ccc(O)cc3)[C@@]13C(=O)Nc1ccc(C#CC4=CCCCC4)cc13)CC2

1. 0.0574
2. 0.833

* * *

System: Fibrinogen (Alexa647-labelled)
assay_overview: fibrinogen binders on compound microarrays, profiling panel, artefact control for SMM control-protein annotation, biochemical, small-molecule microarray, 635/667 nm fluorescence (AID 1131);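 note: z-score merges 667 nm fluorescence with per-spot signal-to-noise over triplicate slides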
experimental_conditions: fibrinogen-A647 binding fluorescence, higher = more signal
Everything with composite z-score lower than 0.6 is 0.0; everything else, including exactly 0.6, is 1.0.

CN(C)C(=O)[C@]1(CCS(=O)(=O)c2ccccc2)N=C(c2ccc(OCCCO)cc2)O[C@@H]1c1ccccc1CN=[N+]=[N-] | 1.0

I'd appreciate it if you could say whether `C[N+](C)(C)CCCC[C@@H]1NC(=O)[C@H]2C[C@@H](C(=O)O)[C@@H](c3ccc(O)cc3)N2C1=O` has composite z-score at least equal to 0.6. 0.0

I'd appreciate it if you could say whether `C=CCNC(=O)[C@@H]1[C@H]2C(=O)O[C@H](c3ccccc3)[C@H](c3ccccc3)N2[C@H](c2ccc(O)cc2)[C@@]12C(=O)Nc1ccc(C#CC3=CCCCC3)cc12` has composite z-score at least equal to 0.6. 1.0

I'd appreciate it if you could say whether C=CCC(OC(C)=O)[C@@H]1[C@@H](N(Cc2ccc(-c3ccccc3)cc2)C(=O)Cc2ccc(OC)cc2)c2cc(OCCCO)ccc2N1C(=O)c1ccc2ccccc2c1 (some centres undefined) has composite z-score at least equal to 0.6. 0.0

I'd appreciate it if you could say whether `C=CCNC(=O)[C@H]1[C@@H]2C(=O)O[C@@H](c3ccccc3)[C@@H](c3ccccc3)N2[C@@H](c2ccc(OCCO)cc2)[C@]12C(=O)N(C(=O)OCCOC)c1ccc(C#CCC(C(=O)OC)C(=O)OC)cc12` has composite z-score at least equal to 0.6. 1.0

I'd appreciate it if you could say whether `COCCCNC(=O)[C@@]1(Cc2ccccc2I)c2ccccc2C(=O)N(C2CCCCC2)[C@H]1c1ccc(CO)cc1` has composite z-score at least equal to 0.6. 0.0

I'd appreciate it if you could say whether `Cc1ccc(S[C@]2(C(=O)NC3CC3)CC(=O)N(C3Cc4ccccc4C3)[C@@H]2c2ccc(CO)cc2I)cc1` has composite z-score at least equal to 0.6. 0.0

Origin of the recorded values: PubChem BioAssay
